Can you tell me Zeta potential (mV) for the items I'm about to list?
Test: LNP size, PDI and zeta potential by Dynamic Light Scattering (Method A)
Format: physicochemical
Settings: LNP formulated with the lipid, DLS
// note: answer is a bare numeric in mV

Data request: Look at this compound and give its reported Zeta potential (mV). CCCCCCCC/C=C\CCCCCCCCOC(=O)C(C)(C)CC(OCCCCCCCC/C=C\CCCCCCCC)O[Si](C)(C)OCCCCCCN(CCO)CCN(CCO)CCCCCCO[Si](C)(C)OC(CC(C)(C)C(=O)OCCCCCCCC/C=C\CCCCCCCC)OCCCCCCCC/C=C\CCCCCCCC (stereo not shown)
Data returned: −17.77

Data request: Request the reported Zeta potential (mV) associated with CCCCCCCCC(CCCCCC)C(=O)OCCCCCCN(CCCCO)CCCCCCOC(=O)C(CCCCCC)CCCCCCCC (stereo not shown) [ALC-0315, reference compound]
Data returned: −12.32

Data request: Report Zeta potential (mV) for CCCCCCCC/C=C\CCCCCCCC(OCCCCCCCCCCCCCCCC)O[Si](C)(C)OCCCCCCN(CCO)CCO (stereo not shown) please.
Data returned: −8.408

Data request: Recorded Zeta potential (mV) of CCCCCCCC/C=C\CCCCCCCCOC(=O)C(C)(C)CC(OCCCCCCCC/C=C\CCCCCCCC)O[Si](C)(C)OCCCCCCN(CCO)CCO (stereo not shown) , please.
Data returned: −16.66

Data request: Name the reported Zeta potential (mV) value associated with the compound CCCCC/C=C\C/C=C\CCCCCCCC(OCCCCCCCC/C=C\CCCCCCCC)O[Si](C)(C)OCCCCCCN(CCO)CCO (stereo not shown)
Data returned: −8.85

Data request: Can you look up the measured Zeta potential (mV) of CCCCC/C=C\C/C=C\CCCCCCCCOC(CCCCCN(CCO)CCO)O[Si](C)(C)OCCCCCCCC/C=C\C/C=C\CCCCC (stereo not shown) for me?
Data returned: −9.414

Data request: Reported Zeta potential (mV) for CCCCCCCCCCCOC(=O)CCCCCN(CCO)CCCCCCCC(=O)OC(CCCCCCCC)CCCCCCCC [SM-102, reference compound] : what is it?
Data returned: −5.03

Data request: Entry under review: CCCCC/C=C\C/C=C\CCCCCCCCOC(CCCCCN(C)CC(O)CO)O[Si](C)(C)OCCCCCCCC/C=C\C/C=C\CCCCC (stereo not shown) . Reported Zeta potential (mV)?
Data returned: −11.66

Data request: Returns the measured Zeta potential (mV) for the input compound. Input: CCCCC/C=C\C/C=C\CCCCCCCCOC(CCCCCCC/C=C\C/C=C\CCCCC)O[Si](C)(C)OCCCCCCN(C)[C@H](CO)Cc1ccccc1 (stereo partly shown)
Data returned: −10.95

Data request: Record request: Zeta potential (mV) value, item CCCCC/C=C\C/C=C\CCCCCCCCOC(CCCCCCC/C=C\C/C=C\CCCCC)O[Si](C)(C)OCCCCCCN1CCCCC1 (stereo not shown)
Data returned: −11.06

Data request: For CCCCC/C=C\C/C=C\CCCCCCCCOC(CCCCCCC/C=C\C/C=C\CCCCC)O[Si](C)(C)OCCCCCCN(C)C (stereo not shown) , what is its reported Zeta potential (mV)?
Data returned: −2425

Data request: Which measured Zeta potential (mV) value corresponds to C#CCN(C)CCCCCCO[Si](C)(C)OC(CCCCCCC/C=C\C/C=C\CCCCC)OCCCCCCCC/C=C\C/C=C\CCCCC (stereo not shown) ?
Data returned: −8.62

Data request: Field request: Zeta potential (mV) | item: CCCCCCCC/C=C\CCCCCCCC(OCCCCCCCCCCCC1CCCCC1)O[Si](C)(C)OCCCCCCN(CCO)CCO (stereo not shown)
Data returned: −9.76
